I'd be grateful if you could share measured Cas9 with SSAP activity (normalized) for these entries.
Tested on: gene editing with Cas9
Assay: Screen of 322 new SSAP proteins, gene editing activity with Cas9 (Table 5)
Type: cell-based
Conditions: normalized
Simply state the number, no unit and no words.

Note to self: Cas9 with SSAP activity (normalized) recorded for SSAP_177: SEQ ID NO: 346; Geomicrobium sp. JCM 19055 (protein, listed as Geomicrobium sp.) GYKGMIDLARRSGHIKSIYAHTVHANDEFEYELGLEPKLVHKPATGDRGNMEYAYAVAHFVDGGYQFEVFSHHDIEQVKKRSKAGNFGPWKTDYEEMAKKTVVRRMFKYLPISIEIQQHASQDETVRRDITEEAEKVDNIIDLPNYEDPNNIDVPDEEQDEQKDEKQKQQGSAEEIALDFK was −0.508

Note to self: Cas9 with SSAP activity (normalized) recorded for SSAP_308: SEQ ID NO: 477; uncultured organism (protein, uncultured organism) SNELQNIKPEVFGEVEDKLGSLADNNGIDLPENYSARNALKQAYLKLQSKDEPVFDKYKDETIYNALLDTLTQGLNPGKDQVYYIGYGNHLTAQKSYFGNIALAKRMAGVQEVSSNVILEGDEVDISIERGQQVIESHDRNFDSMDGQVKGAYAVISFEDERKDKYEIMTLKELKQAWAQGKSFGGNGKSPHHKFTKEMAKKTVINRALKPLIKASDDSGLIKEKPKLEKLKDGQQERTEGEKIEEVDVDKEEVVEVDYDV was −1.286
